Target: α2-adrenoceptors (Rattus norvegicus)
Sequence (P22909 whole entry): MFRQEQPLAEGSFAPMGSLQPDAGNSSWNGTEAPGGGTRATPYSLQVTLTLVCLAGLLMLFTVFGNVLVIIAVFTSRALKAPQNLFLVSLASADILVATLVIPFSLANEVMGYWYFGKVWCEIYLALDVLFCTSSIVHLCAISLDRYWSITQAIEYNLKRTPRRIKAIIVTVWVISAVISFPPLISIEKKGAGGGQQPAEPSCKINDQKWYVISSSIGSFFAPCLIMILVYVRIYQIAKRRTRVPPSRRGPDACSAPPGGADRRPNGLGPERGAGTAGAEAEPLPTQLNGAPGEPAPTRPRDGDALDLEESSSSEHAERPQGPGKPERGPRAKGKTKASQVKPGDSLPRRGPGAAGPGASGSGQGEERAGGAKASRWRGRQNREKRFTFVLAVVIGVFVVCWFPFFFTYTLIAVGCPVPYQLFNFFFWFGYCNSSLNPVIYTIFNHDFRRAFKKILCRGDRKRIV
Assay: inhibition of tritiated ligand (tritiated idazoxan) binding to α2-adrenoceptors in vitro (frontal cortical tissue)
Design: species or system rat (male Charles River CD)
Settings: rat frontal cortical tissue, tritiated idazoxan, 0° C., 75 minutes; > from highest concentration which displaced ≤50% of the ligand
Where a name gives a salt, the structure may show the parent alone.
Recorded Ki for the following compounds

get_value(item= COc1ccccc1N1CCC(CNCC2COc3ccc4ccccc4c3O2)CC1 (stereo not shown) [Example 24, hydrate] , readout=Ki) returns > 500 nM

Ki in this record for FC(F)(F)c1cccnc1NCCNCC1COc2ccccc2O1 (stereo not shown) [Example 8, dihydrochloride] : 70 nM

Per the records, this compound ( COc1cccc2c1CC(CNCC1CCN(c3ncccn3)CC1)CO2 (stereo not shown) [Example 11, monofumarate] ) has Ki equal to > 500 nM

Per the record, COc1ccccc1NCCCNCC1COc2cccc(OC)c2O1.O=C(O)/C=C\C(=O)O (stereo not shown) [Example 17, maleate] has Ki of > 500 nM
